Source of measurements: paper PMC11097166

- systemUnderTest: hCA I (Homo sapiens, UniProt P00915)
- Sequence (P00915 whole entry): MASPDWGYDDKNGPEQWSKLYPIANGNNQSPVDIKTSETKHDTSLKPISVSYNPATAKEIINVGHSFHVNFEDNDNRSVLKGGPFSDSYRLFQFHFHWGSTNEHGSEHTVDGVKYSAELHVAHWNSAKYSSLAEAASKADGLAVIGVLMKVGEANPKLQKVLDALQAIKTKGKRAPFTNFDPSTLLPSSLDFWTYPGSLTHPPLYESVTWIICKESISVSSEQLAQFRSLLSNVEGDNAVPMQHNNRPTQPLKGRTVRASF
- procedureDetails: CA esterase activity method, hCA I; further: key: +: active; -: not effect
- Format: biochemical
- runParameters: Table S3

compound: c1ccc(COC(Cn2ccnc2)c2ccccc2)cc1 (stereo not shown)
Effect on hCA I isoenzyme activity: +
--
compound: O=C(Cn1ccnc1)c1ccccc1
Effect on hCA I isoenzyme activity: -
--
compound: CCOC(Cn1ccnc1)c1ccc(OC)cc1 (stereo not shown)
Effect on hCA I isoenzyme activity: +
--
compound: C=CCOC(Cn1ccnc1)c1ccc(Cl)cc1 (stereo not shown)
Effect on hCA I isoenzyme activity: +
--
compound: CCCOC(Cn1ccnc1)c1ccc(OC)cc1 (stereo not shown)
Effect on hCA I isoenzyme activity: +
--
compound: OC(Cn1ccnc1)c1ccccc1 (stereo not shown)
Effect on hCA I isoenzyme activity: +
--
compound: CCOC(Cn1ccnc1)c1ccc(Cl)cc1 (stereo not shown)
Effect on hCA I isoenzyme activity: +
--
compound: O=C(Cn1ccnc1)c1ccc(Cl)cc1
Effect on hCA I isoenzyme activity: -
--
compound: CCOC(Cn1ccnc1)c1ccccc1 (stereo not shown)
Effect on hCA I isoenzyme activity: +
--
compound: OC(Cn1ccnc1)c1ccc(Cl)cc1 (stereo not shown)
Effect on hCA I isoenzyme activity: +
--
compound: CCCOC(Cn1ccnc1)c1ccc(Cl)cc1 (stereo not shown)
Effect on hCA I isoenzyme activity: +
--
compound: C=CCOC(Cn1ccnc1)c1ccc(OC)cc1 (stereo not shown)
Effect on hCA I isoenzyme activity: +
--
compound: Cc1ccc(COC(Cn2ccnc2)c2ccccc2)cc1 (stereo not shown)
Effect on hCA I isoenzyme activity: +
--
compound: COc1ccc(C(=O)Cn2ccnc2)cc1
Effect on hCA I isoenzyme activity: -
--
compound: C=CCOC(Cn1ccnc1)c1ccccc1 (stereo not shown)
Effect on hCA I isoenzyme activity: +
--
compound: CCCOC(Cn1ccnc1)c1ccccc1 (stereo not shown)
Effect on hCA I isoenzyme activity: +

* * *

As shown below, each of these molecules has a reported pIC50 value.
- System: C6 rat glial tumor cell line
- procedureDetails: MTT cell viability assay on C6
- Format: cell-based
- runParameters: 24 h incubation
pIC50: −log10 of the molar value.
reportedEndpoint: pIC50

molecule: N.N.[Cl][Pt][Cl] [cisplatin, reference compound]
reportedResult: 4.05
--
molecule: O=C(Cn1ccnc1)c1ccc(Cl)cc1 [Compound 3b]
reportedResult: 4.97

* * *

As shown below, each of these compounds has a reported IC50 value.
- systemUnderTest: hCA II (Homo sapiens)
reportedEndpoint: IC50 (nM)

compound: Clc1ccc(C(Cn2ccnc2)OCc2ccccc2)cc1 (stereo not shown)
reportedEndpoint: IC50
reportedResult: 11.7

compound: Cc1ccc(COC(Cn2ccnc2)c2ccc(Cl)cc2)cc1 (stereo not shown)
reportedEndpoint: IC50
reportedResult: 7.9

compound: COc1ccc(C(Cn2ccnc2)OCc2ccc(C)cc2)cc1 (stereo not shown)
reportedEndpoint: IC50
reportedResult: 9.66

compound: Clc1ccc(COC(Cn2ccnc2)c2ccc(Cl)cc2)cc1 (stereo not shown)
reportedEndpoint: IC50
reportedResult: 10.9

* * *

- Test system: L929 mouse fibroblast cell line
- procedureDetails: MTT cell viability assay on L929
- runParameters: Mus musculus, L929, 24 h, read-out: IC50 L929
pIC50: −log10 of the molar value.

compound: O=C(Cn1ccnc1)c1ccccc1 [Compound 3a, 2-(1H-Imidazol-1-yl)-1-phenylethanone]
pIC50: 3.76
//
compound: OC(Cn1ccnc1)c1ccc(Cl)cc1 (centres unmarked) [Compound 4b]
pIC50: 3.98
//
compound: CCOC(Cn1ccnc1)c1ccccc1 (centres unmarked) [Compound 7, 1-(2-Ethoxy-2-phenylethyl)-1H-imidazole]
pIC50: 3.76
//
compound: O=C(Cn1ccnc1)c1ccc(Cl)cc1 [Compound 3b]
pIC50: 3.86
//
compound: OC(Cn1ccnc1)c1ccccc1 (centres unmarked) [Compound 4a, 2-(1H-Imidazol-1-yl)-1-phenylethanol]
pIC50: 3.78
